Biological target: human GST-CLK1 (Homo sapiens)
Sequence (P49759 129-484 limits assumed): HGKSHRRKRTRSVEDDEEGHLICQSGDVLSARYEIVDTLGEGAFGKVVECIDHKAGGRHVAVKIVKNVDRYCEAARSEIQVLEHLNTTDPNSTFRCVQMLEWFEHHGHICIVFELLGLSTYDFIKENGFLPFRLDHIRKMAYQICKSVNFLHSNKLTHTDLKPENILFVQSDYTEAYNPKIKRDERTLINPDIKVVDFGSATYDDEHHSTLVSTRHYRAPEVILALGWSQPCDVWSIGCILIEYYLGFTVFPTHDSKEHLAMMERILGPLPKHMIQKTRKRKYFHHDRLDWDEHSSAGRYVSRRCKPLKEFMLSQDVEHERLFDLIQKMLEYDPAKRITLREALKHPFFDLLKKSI
pIC50: −log10 of the molar value.
pIC50 for assorted compounds

COMPOUND | TARGET OF ASSAY | pIC50
CNc1nc(Nc2ccc(C(=O)N3CCOCC3)c3c2OCCO3)nc2[nH]cc(C#N)c12 | human GST-CLK1 (Homo sapiens) | > 7.00
CNc1nc(Nc2ccc(S(=O)(=O)N3CCOCC3)cc2OC)nc2[nH]ccc12 [Example 2, 2,2,2-trifluoroacetate] | human GST-CLK1 (Homo sapiens) | 6.00 to 6.52
CNc1nc(Nc2ccc(S(C)(=O)=O)cc2OC)nc2[nH]ccc12 [Example 4, 2,2,2-trifluoroacetate] | human GST-CLK1 (Homo sapiens) | 6.00 to 6.52
